Hello, the source for this data is the supplement of paper PMC12350171, in case you need it.

Tested on: Yersinia pseudotuberculosis
test.summary: growth AUC normalised to DMSO control (fraction of control); higher = less growth inhibition, active = hit call of the paper
recorded.conditions: 20 µM
Counter-ions that a name gives are not always drawn.
readout.type: growth AUC normalised to DMSO control

>>> observed_measurement("CCOC(=O)NNc1nncc2ccccc12 [Todralazine hydrochloride]")
1.01
>>> observed_measurement("O=C(O)c1ccccc1OP(=O)(O)O")
0.988
>>> observed_measurement("O=c1[nH]c(=O)n([C@H]2C[C@H](O)[C@@H](CO)O2)cc1F")
0.44
>>> observed_measurement("CCN(CCO)CCCC(C)Nc1ccnc2cc(Cl)ccc12 (stereo not given) [Hydroxychloroquine sulfate]")
1.01
>>> observed_measurement("CN(C)C(=N)NC(=N)N [Metformin hydrochloride]")
0.983
>>> observed_measurement("CC(CCc1ccc(O)cc1)NCCc1ccc(O)c(O)c1 (stereo not given) [Dobutamine hydrochloride]")
1
>>> observed_measurement("Cc1[nH]c(=O)c(C#N)cc1-c1ccncc1")
0.989
>>> observed_measurement("CN1CCN2c3ncccc3Cc3ccccc3C2C1 (stereo not given)")
1
>>> observed_measurement("N=C(N)NC(=N)NCCc1ccccc1 [Phenformin hydrochloride]")
0.987
>>> observed_measurement("CC(=O)O[C@]1(C(C)=O)CC[C@H]2[C@@H]3C=C(C)C4=CC(=O)CC[C@@H]4[C@H]3CC[C@@]21C [Nomegestrol acetate]")
1.01
>>> observed_measurement("CCCC1C(=O)N2C(N(C)C)=Nc3ccc(C)cc3N2C1=O (stereo not given)")
0.964
>>> observed_measurement("CC(=O)OCC(=O)[C@@]1(O)CC[C@H]2[C@@H]3CCC4=CC(=O)CC[C@]4(C)[C@@]3(F)[C@@H](O)C[C@@]21C [Fludrocortisone acetate]")
1
>>> observed_measurement("CC(=O)c1ccc2c(c1)N(CCCN(C)C)c1ccccc1S2 [Acetopromazine maleate salt]")
0.949
>>> observed_measurement("CCOC(=O)[C@@](C)(N)Cc1ccc(O)c(O)c1 [Methyldopate hydrochloride]")
1.02
>>> observed_measurement("CC(C(O)c1ccc(O)cc1)N1CCC(Cc2ccccc2)CC1 (stereo not given) [Ifenprodil tartrate]")
1
>>> observed_measurement("CC(N)CCCC(C)(C)O (stereo not given) [Heptaminol hydrochloride]")
0.997
>>> observed_measurement("C[C@]12CCC(=O)C=C1CC[C@@H]1[C@@H]2C(=O)C[C@@]2(C)[C@H]1CC[C@]2(O)C(=O)CO")
0.982
>>> observed_measurement("C=CCN1CCCC1CNC(=O)c1cc2nn[nH]c2cc1OC (stereo not given) [Alizapride hydrochloride]")
0.996
>>> observed_measurement("NS(=O)(=O)c1cc2c(cc1C(F)(F)F)NCNS2(=O)=O [Hydroflumethiazide]")
0.998
>>> observed_measurement("NCCNCCNCCNCCN [Tetraethylenepentamine pentahydrochloride]")
0.998
>>> observed_measurement("Cc1ncc(C[n+]2csc(CCO)c2C)c(N)n1 [Thiamine hydrochloride]")
0.999
>>> observed_measurement("CCCCCCC[N+](CC)(CC)CCCCc1ccc(Cl)cc1 [Clofilium tosylate]")
1.02
>>> observed_measurement("CN/C(=N\\CCSCc1nc[nH]c1C)NC#N")
1
>>> observed_measurement("C[C@H](CS)C(=O)N1CCC[C@H]1C(=O)O")
1.01
>>> observed_measurement("CC(C)NC[C@H](O)COc1cccc2ccccc12 [(S)-(-)-Propranolol hydrochloride]")
0.996
>>> observed_measurement("CC(=O)OCC(=O)[C@@]12OC3(CCCC3)O[C@@H]1C[C@H]1[C@@H]3CCC4=CC(=O)C=C[C@]4(C)[C@@]3(F)[C@@H](O)C[C@@]12C [Amcinonide]")
1.04
>>> observed_measurement("CC(=O)SCC(Cc1ccccc1)C(=O)NCC(=O)OCc1ccccc1 (stereo not given)")
1.01
>>> observed_measurement("Cc1cc(NC(=O)C2=C(O)c3ccccc3S(=O)(=O)N2C)no1")
0.984
>>> observed_measurement("C#C[C@]1(O)CC[C@H]2[C@@H]3[C@H](C)CC4=C(CCC(=O)C4)[C@H]3CC[C@@]21C")
1
>>> observed_measurement("C=CC1=C(C(=O)O)N2C(=O)[C@@H](NC(=O)/C(=N\\OCC(=O)O)c3csc(N)n3)[C@H]2SC1")
0.0395
>>> observed_measurement("CCCCN1CCCCC1C(=O)Nc1c(C)cccc1C (stereo not given) [Bupivacaine hydrochloride]")
0.973
>>> observed_measurement("COc1ccc(NS(=O)(=O)c2ccc(N)cc2)nn1")
0.996
>>> observed_measurement("CC(COc1ccccc1)N(CCCl)Cc1ccccc1 (stereo not given) [Phenoxybenzamine hydrochloride]")
1.03
>>> observed_measurement("Cc1cccc(CN2CCN(C(c3ccccc3)c3ccc(Cl)cc3)CC2)c1 (stereo not given) [Meclozine dihydrochloride]")
0.987
>>> observed_measurement("COC(=O)C1=C(C)NC(C)=C(C(=O)OCCN(C)Cc2ccccc2)C1c1cccc([N+](=O)[O-])c1 (stereo not given) [Nicardipine hydrochloride]")
1
